# system-name: AxCT mask27 EGFR EH104 L071 version 1
proteins and their reported Percent cleavage
assay-endpoint: Percent cleavage (%)

• MMP-1 (protein) FVLTEGNPRWEQTHLTYRIENYTPDLPRADVDHAIEKAFQLWSNVTPLTFTKVSEGQADIMISFVRGDHRDNSPFDGPGGNLAHAFQPGPGIGGDAHFDEDERWTNNFREYNLHRVAAHELGHSLGLSHSTDIGALMYPSYTFSGDVQLAQDDIDGIQAIYGRSQNPVQPIGPQTPKACDSKLTFDAITTIRGEVMFFKDRFYMRTNPFYPEVELNFISVFWPQLPNGLEAAYEFADRDEVRFFKGNKYWAVQGQNVLHGYPKDIYSSFGFPRTVKHIDAALSEENTGKTYFFVANKYWRYDEYKRSMDPGYPKMIAHDFPGIGHKVDAVFMKDGFFYFFHGTRQYKFDPKTKRILTLQKANSWFNCRKN = 0
• Matriptase (protein) VVGGTDADEGEWPWQVSLHALGQGHICGASLISPNWLVSAAHCYIDDRGFRYSDPTQWTAFLGLHDQSQRSAPGVQERRLKRIISHPFFNDFTFDYDIALLELEKPAEYSSMVRPICLPDASHVFPAGKAIWVTGWGHTQYGGTGALILQKGEIRVINQTTCENLLPQQITPRMMCVGFLSGGVDSCQGDSGGPLSSVEADGRIFQAGVVSWGDGCAQRNKPGVYTRLPLFRDWIKENTGV = 0
